target: F508delCFTR (Homo sapiens, UniProt P13569, DEL508-508); construct: expressed in transfected cells; host or cells: CFBE41o- human lung-derived epithelial cells (CFBE4lo-F508delCFTR-HRP), doxycycline-inducible; assay: Cell Surface Expression-Horse Radish Peroxidase (CSE-HRP) Assay; type: cell-based; details: without co-corrector; maximum at any tested concentration, normalized to on-plate positive control; read-out: Maximum % activity (without co-corrector);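 on Maximum % activity (without co-corrector): percent of the 2 µM on-plate positive control corrector response above DMSO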
Sequence (P13569 with tags, fused parts or gaps DEL508-508): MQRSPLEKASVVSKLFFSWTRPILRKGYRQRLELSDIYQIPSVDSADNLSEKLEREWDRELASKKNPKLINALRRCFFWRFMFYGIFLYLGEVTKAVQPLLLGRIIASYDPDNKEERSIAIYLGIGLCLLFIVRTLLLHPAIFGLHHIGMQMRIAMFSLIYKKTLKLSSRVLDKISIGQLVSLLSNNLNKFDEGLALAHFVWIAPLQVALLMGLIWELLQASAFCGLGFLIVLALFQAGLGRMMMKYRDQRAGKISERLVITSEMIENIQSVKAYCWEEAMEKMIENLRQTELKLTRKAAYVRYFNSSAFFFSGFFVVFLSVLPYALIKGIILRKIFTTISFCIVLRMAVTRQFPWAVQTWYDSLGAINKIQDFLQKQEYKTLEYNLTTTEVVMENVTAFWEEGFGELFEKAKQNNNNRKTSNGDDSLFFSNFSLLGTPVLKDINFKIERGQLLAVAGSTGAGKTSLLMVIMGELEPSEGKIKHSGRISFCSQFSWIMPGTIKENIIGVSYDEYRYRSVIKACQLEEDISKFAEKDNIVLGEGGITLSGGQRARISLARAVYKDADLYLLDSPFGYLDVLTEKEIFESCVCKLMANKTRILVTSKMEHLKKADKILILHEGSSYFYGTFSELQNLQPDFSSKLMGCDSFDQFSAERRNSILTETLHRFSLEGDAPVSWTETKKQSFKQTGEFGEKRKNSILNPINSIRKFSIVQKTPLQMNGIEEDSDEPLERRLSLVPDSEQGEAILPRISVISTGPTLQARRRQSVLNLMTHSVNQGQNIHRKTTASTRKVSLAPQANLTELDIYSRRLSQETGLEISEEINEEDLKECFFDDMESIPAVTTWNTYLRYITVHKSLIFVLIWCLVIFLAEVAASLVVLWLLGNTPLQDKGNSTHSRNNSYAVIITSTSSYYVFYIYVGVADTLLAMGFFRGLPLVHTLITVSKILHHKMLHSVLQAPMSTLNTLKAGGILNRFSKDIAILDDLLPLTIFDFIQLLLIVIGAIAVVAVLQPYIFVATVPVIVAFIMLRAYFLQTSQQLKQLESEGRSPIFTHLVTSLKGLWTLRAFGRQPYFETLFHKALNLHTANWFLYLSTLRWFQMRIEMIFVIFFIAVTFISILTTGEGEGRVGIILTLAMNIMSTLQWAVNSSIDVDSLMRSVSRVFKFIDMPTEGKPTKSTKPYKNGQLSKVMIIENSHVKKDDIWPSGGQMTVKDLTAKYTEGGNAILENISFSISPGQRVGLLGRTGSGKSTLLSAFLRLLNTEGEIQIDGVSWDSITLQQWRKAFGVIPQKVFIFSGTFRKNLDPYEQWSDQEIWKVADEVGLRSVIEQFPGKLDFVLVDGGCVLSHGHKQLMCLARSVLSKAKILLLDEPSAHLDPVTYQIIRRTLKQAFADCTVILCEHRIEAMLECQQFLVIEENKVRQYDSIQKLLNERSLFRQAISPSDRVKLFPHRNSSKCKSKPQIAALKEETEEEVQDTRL
endpoint: Emax

Would you please look over these solved cases?
COc1ccc(C(F)(F)F)cc1CN[C@H]1[C@H](C(C)(C)OC)[C@@H](C(=O)O)N(C(=O)C2CCCCC2)[C@H]1c1ccccc1
> 200%
COc1ccc(C(C)(C)C)cc1CN[C@@H]1[C@@H](C(C)(C)C)[C@H](C(=O)NS(C)(=O)=O)N(C(=O)C2CCCCC2)[C@@H]1c1ccccc1
< 100%
CC(N[C@@H]1[C@@H](C(C)(C)C)[C@H](C(=O)O)N(C(=O)C2CCCCC2)[C@@H]1c1ccccc1)c1ccc2c(c1)OC(F)(F)O2 (mixture of isomers)
< 100%
COc1ccc(C2(C(F)(F)F)CC2)cc1CN[C@H]1[C@H](C(C)(C)C)[C@@H](C(=O)O)N(C(=O)OC(C)C)[C@H]1c1ccccc1
> 200%
COc1ncc(CC(C)C)cc1CN[C@H]1[C@H](C(C)(C)C)[C@@H](C(=O)O)N(C(=O)C2CCCCC2)[C@H]1c1ccccc1
> 200%

Consider the additional molecule presented here.
For this molecule ( COc1nc(C(C)(C)C)ccc1CN[C@H]1[C@H](C(C)(C)C)[C@@H](C(=O)O)N(C(=O)C2CCCCC2)[C@H]1c1ccccc1C(C)C ), measured Emax is > 200%

###

target: F508delCFTR (Homo sapiens, UniProt P13569, DEL508-508); construct: expressed in transfected cells; host or cells: CFBE41o- human lung-derived epithelial cells (CFBE4lo-F508delCFTR-HRP), doxycycline-inducible; experiment: Cell Surface Expression-Horse Radish Peroxidase (CSE-HRP) Assay; format: cell-based; conditions: CSE-HRP; test compound without co-corrector; read-out: EC50 (without co-corrector)
endpoint: EC50

Would you please look over these solved cases?
CC(C)(C)c1cccc(CN[C@H]2[C@H](C(C)(C)C)[C@@H](C(=O)O)N(C(=O)C3CCCCC3)[C@H]2c2ccccc2)c1 [II-121]
1000 to 10000 nM
COc1ccc(C(C)(C)C)cc1CN[C@H]1[C@H](C2(C)CC2)[C@@H](C(=O)O)N(C(=O)C2CCCCC2)[C@H]1c1ccccc1 [II-302]
1000 to 10000 nM
COc1ccc(C(C)(C)C)cc1CN[C@H]1[C@H](C(C)(C)C)[C@@H](C(=O)O)N(C(=O)C(C)n2cc(Cl)c(C)n2)[C@H]1c1ccccc1 (single isomer, unassigned) [III-182]
1000 to 10000 nM

For this compound ( COc1cc(Cl)ccc1CN[C@@H]1[C@@H](C(C)(C)C)[C@H](C(=O)O)N(C(=O)OC(C)C)[C@@H]1c1ccccc1 (racemic) [II-45] ), measured EC50 is 1000 to 10000 nM

For this compound ( COc1ncc(CC2CCCCC2)cc1CN[C@H]1[C@H](C(C)(C)OC)[C@@H](C(=O)O)N(C(=O)C2CCCCC2)[C@H]1c1ccccc1 [II-253] ), measured EC50 is < 1000 nM

For this compound ( COc1cc(C(F)(F)F)ccc1CN[C@H]1[C@H](C(C)(C)C)[C@@H](C(=O)O)N(C(=O)[C@H](OC)c2ccccc2)[C@H]1c1cccnc1N(C)C [II-87] ), measured EC50 is 1000 to 10000 nM

For this compound ( COc1ccc(C(C)C)cc1CN[C@H]1[C@H](C(C)(C)OC)[C@@H](C(=O)O)N(C(=O)C2CCCCC2)[C@H]1c1ccccc1 [II-258] ), measured EC50 is 1000 to 10000 nM

For this compound ( Cc1cc(C(F)(F)F)cc(N[C@@H]2[C@@H](C(C)(C)C)[C@H](C(=O)O)N(C(=O)OC(C)C)[C@@H]2c2ccccc2)n1 (racemic) [II-13] ), measured EC50 is 1000 to 10000 nM

For this compound ( COc1ccc(-c2ccccc2)nc1CN[C@H]1[C@H](C(C)(C)C)[C@@H](C(=O)O)N(C(=O)C2CCCCC2)[C@H]1c1ccccc1 [II-296] ), measured EC50 is 1000 to 10000 nM

###

target: F508delCFTR (Homo sapiens, UniProt P13569, DEL508-508); construct: expressed in transfected cells; host or cells: CFBE41o- human lung-derived epithelial cells (CFBE4lo-F508delCFTR-HRP), doxycycline-inducible; test: Cell Surface Expression-Horse Radish Peroxidase (CSE-HRP) Assay; format: cell-based; settings: CSE-HRP; with co-corrector (2 μM); maximum at any tested concentration, normalized to on-plate positive control;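 on Maximum % activity (with co-corrector): co-corrector and positive control are both the same reference corrector at 2 µM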
endpoint: Maximum % activity (with co-corrector)

Would you please look over these solved cases?
COc1ccc(C(C)(C)C)cc1CN[C@H]1[C@H](C(C)(C)C)[C@@H](C(=O)O)N(C(=O)Cc2ccc(O)cc2)[C@H]1c1ccccc1
+++ (≥350)
CC[C@H](C(=O)N1[C@H](C(=O)O)[C@@H](C(C)(C)C)[C@H](NCc2cc(C(C)(C)C)ccc2OC)[C@@H]1c1cccnc1OC)c1ccccc1
+++ (≥350)
COc1c(Cl)cccc1CN[C@@H]1[C@@H](C(C)(C)C)[C@H](C(=O)O)N(C(=O)C2CCCCC2)[C@@H]1c1ccccc1 (racemic)
+++ (≥350)
COc1cc(C(F)(F)F)ccc1CN[C@H]1[C@H](C(C)(C)C)[C@@H](C(=O)O)N(C(=O)[C@H](OC)c2ccccc2)[C@H]1c1cccnc1N(C)C (racemic) [II-48]
+++ (≥350)

For this molecule ( COc1ccc(C(C)(C)C)cc1CN[C@H]1[C@H](C(C)(C)C)[C@@H](C(=O)O)N(C(=O)C2CCCCC2)[C@H]1c1ccccc1O ), measured Maximum % activity (with co-corrector) is +++ (≥350)

For this molecule ( COc1ccc(C(C)(C)C)cc1CN[C@H]1[C@H](C(C)(C)C)[C@@H](C(=O)O)N(C(=O)CC2=CCCC2)[C@H]1c1ccccc1 ), measured Maximum % activity (with co-corrector) is +++ (≥350)

For this molecule ( COCc1ccc(OC)c(CN[C@H]2[C@H](C(C)(C)C)[C@@H](C(=O)O)N(C(=O)C3CCCCC3)[C@H]2c2ccccc2)c1 ), measured Maximum % activity (with co-corrector) is +++ (≥350)

For this molecule ( COc1ccc(C(F)(F)F)cc1OCCN[C@H]1[C@H](C(C)(C)C)[C@@H](C(=O)O)N(C(=O)OC(C)C)[C@H]1c1cccnc1OC(C)C ), measured Maximum % activity (with co-corrector) is +++ (≥350)

For this molecule ( COc1ccc(CN[C@@H]2[C@@H](C(C)(C)C)[C@H](C(=O)O)N(C(=O)C3CCCCC3)[C@@H]2c2ccccc2)c(OC)c1Cl (racemic) ), measured Maximum % activity (with co-corrector) is ++ (≥150 and <350)

For this molecule ( COc1ncc(C(F)(F)F)cc1CN[C@H]1[C@H](C(C)(C)C)[C@@H](C(=O)O)N(C(=O)[C@@H]2CCCO2)[C@H]1c1ccccc1C ), measured Maximum % activity (with co-corrector) is +++ (≥350)

For this molecule ( COc1ccc(C(F)(F)F)cc1CN[C@H]1[C@H](C(C)(C)C)[C@@H](C(=O)O)N(S(=O)(=O)c2ccccc2)[C@H]1c1ccccc1 ), measured Maximum % activity (with co-corrector) is ++ (≥150 and <350)

For this molecule ( COc1ccc(C(F)(F)F)cc1CN[C@@H]1[C@@H](C(C)(C)C)[C@H](C(=O)O)N(C(=O)[C@H]2CCCO[C@H]2C)[C@@H]1c1ccccc1 (racemic) ), measured Maximum % activity (with co-corrector) is +++ (≥350)

###

# Emax listing for each entry below
target: F508delCFTR (Homo sapiens, UniProt P13569, DEL508-508); construct: expressed in transfected cells; host or cells: CFBE41o- human lung-derived epithelial cells (CFBE4lo-F508delCFTR-HRP), doxycycline-inducible; assay: Cell Surface Expression-Horse Radish Peroxidase (CSE-HRP) Assay; assay type: cell-based; conditions: CSE-HRP; without co-corrector; maximum at any tested concentration, normalized to on-plate positive control; read-out: Maximum % activity (without co-corrector);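 on Maximum % activity (without co-corrector): percent of the 2 µM on-plate positive control corrector response above DMSO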

COc1cc(Cl)ccc1CN[C@H]1[C@H](C(C)(C)C)[C@@H](C(=O)O)N(C(=O)C2CCCCC2)[C@H]1c1cccnc1OC
100 to 200%
COc1cc(C(F)(F)F)ccc1CN[C@H]1[C@H](C(C)(C)C)[C@@H](C(=O)O)N(C(=O)C2CCCO2)[C@H]1c1ccccc1 (mixture of isomers)
100 to 200%
COC(=O)N1CCC[C@H](C(=O)N2[C@H](c3ccccc3)[C@H](Nc3cc(C(F)(F)F)cc(C)n3)[C@@H](C(C)(C)C)[C@@H]2C(=O)O)C1 (racemic)
> 200%
COc1ccc(C)cc1CN[C@@H]1[C@@H](C(C)(C)C)[C@H](C(=O)O)N(C(=O)OC(C)C)[C@@H]1c1ccccc1 (racemic)
100 to 200%
COc1cc(CN[C@H]2[C@H](C(C)(C)C)[C@@H](C(=O)O)N(C(=O)C3CCCCC3)[C@H]2c2ccccc2)c(F)cc1Cl
< 100%

Consider the additional molecule presented here.
For this molecule ( COc1cccc([C@@H]2[C@H](NCc3cc(Cl)ccc3OC)[C@@H](C(C)(C)C)[C@H](C(=O)O)N2C(=O)C2CCCCC2)n1 (racemic) ), measured Emax is 100 to 200%
